Origin of measurements: the Human Domainome abundance scans (Beltran et al. 2025)

B1: Poly(rC)-binding protein 1, residues 278 to 350; numbered along this chain, Q15365 (parent)
chain: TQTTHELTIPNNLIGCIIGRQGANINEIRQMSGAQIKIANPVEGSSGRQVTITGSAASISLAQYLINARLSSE

Variants of: B1
RUN_DESCRIPTION: abundance fitness (aPCA) (normalised: wild type 0, dead -1); higher = more abundant; growth selection in yeast, the domain comes from the species named
EXPERIMENTAL_CONDITIONS: Homo sapiens
Kindly supply the reported abundance fitness values for the records listed here.
No unit in the answer, only the number.

Prompt: Item under review: T51P . Reported abundance fitness?
Response: -0.682

Prompt: Thanks! And S46Y ?
Response: -0.117

Prompt: Thanks! And T53R ?
Response: -0.007

Prompt: Thanks! And L70V ?
Response: -0.05

Prompt: Thanks! And N11P ?
Response: -0.347

Prompt: Thanks! And S72V ?
Response: -0.072

Prompt: Thanks! And L13S ?
Response: -0.041
